Test: differential killing of epithelial or mesenchymal cells, primary screen, imaging, PC-3E GFP, TEM4-18 mCherry, co-culture (AID 1345086);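 also: cells exposed to compound for 72 h before imaging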
Conditions: imaging cell counts, measured here: epithelial PC-3E GFP cell survival, at 1 µM
normalised cell number under 1 gets Criterion met, anything at or over 1 gets Criterion not met.

Past entries and their recorded results:
>  <Compound>
CCC1(C2=NCCN2)Cc2ccccc2O1 (stereo not given)

>  <Qualitative Label>
Criterion not met

$$$$
>  <Compound>
CN(C)C(=O)Oc1cc(OC(=O)N(C)C)cc(C(O)CNC(C)(C)C)c1 (stereo not given)

>  <Qualitative Label>
Criterion not met

$$$$
>  <Compound>
CC(CO)NC(=O)C1C=C2c3cccc4[nH]cc(c34)C[C@H]2N(C)C1 (stereo not given in full)

>  <Qualitative Label>
Criterion met

$$$$
>  <Compound>
COC(=O)C(c1ccccc1)C1CCCCN1 (stereo not given)

>  <Qualitative Label>
Criterion not met

$$$$
>  <Compound>
CNC(C)C(O)c1ccccc1 (stereo not given)

>  <Qualitative Label>
Criterion not met

$$$$
>  <Compound>
CNCC(O)c1ccc(O)cc1 (stereo not given)

>  <Qualitative Label>
Criterion met

$$$$
>  <Compound>
O=[N+]([O-])c1ccc(CN2CCNCC2)cc1

>  <Qualitative Label>
Criterion not met

$$$$
>  <Compound>
OC[C@@H]1CCCN2CCCC[C@H]12

>  <Qualitative Label>
Criterion met

$$$$
>  <Compound>
Oc1c(Cl)c(Cl)c(Cl)c(Cl)c1Cl

>  <Qualitative Label>
Criterion not met

$$$$
>  <Compound>
CC(O)CN1CCN(CC(=O)[O-])CCN(CC(=O)[O-])CCN(CC(=O)[O-])CC1.[Gd+3] (stereo not given)

>  <Qualitative Label>
Criterion not met

$$$$

Here's an entry: O=C1NC(=O)C(=O)C(=O)N1 . Is its normalised cell number below 1?
Criterion not met

Is normalised cell number of CCOP(=S)(OCC)Oc1nc(Cl)c(Cl)cc1Cl strictly below 1?
Criterion met

Answer whether the compound CC[C@H](C)/C=C(C)/C=C/C1=CC2=C(Cl)C(=O)[C@](C)(OC(C)=O)C(=O)C2=CO1 has normalised cell number strictly less than 1
Criterion met

is_below(normalised cell number, 1) for CN1CCc2cc3c(cc2C1O)OCO3 (stereo not given) ?
Criterion met

For CC1=C(O)C(=O)C=C2C1=CC=C1[C@@]2(C)CC[C@@]2(C)[C@@H]3C[C@](C)(C(=O)O)CC[C@]3(C)CC[C@]12C , is the recorded normalised cell number below the cut-off of 1?
Criterion met

In the record for NCC(=O)c1ccccc1 , is normalised cell number less than 1?
Criterion not met

Find out if reported normalised cell number for O=C(O)COc1ccc(Cl)cc1Cl is less than 1
Criterion met

In plain terms, does Cc1cc(O)ccc1Cl come in under 1 for normalised cell number?
Criterion not met

In the record for CNCC(=O)c1ccc(O)c(O)c1 , is normalised cell number less than 1?
Criterion not met

Please indicate whether the reported normalised cell number of CCCN1CCC[C@@H]2Cc3[nH]ncc3C[C@H]21 is strictly below 1.
Criterion met

Does this compound meet the criterion normalised cell number < 1? O1[As]2O[As]3O[As]1O[As](O2)O3
Criterion not met

* * *

System: Aerobactin synthetase IucA (Klebsiella pneumoniae hvKP1)
Assay: Biochemical IucA enzyme inhibition primary screen of the Spectrum library (AID 1346200);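 also: 100% = wells without compound and 0% = wells lacking enzyme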
Conditions: malachite green pyrophosphate, A620, at 8 µM, stronger effect = lower value
Can you tell me activity remaining for the items I'm about to list?
One number for each entry, in %.

>  <Compound>
O=c1cc(-c2ccc(O)cc2)oc2cc(O[C@@H]3O[C@H](CO)[C@@H](O)[C@H](O)[C@H]3O)cc(O)c12

>  <Target Of Assay>
Aerobactin synthetase IucA (Klebsiella pneumoniae hvKP1)

>  <Attribute Measured>
activity remaining

>  <Quantitative Result>
101

$$$$
>  <Compound>
O=c1cc(-c2ccc(O)c(O)c2)oc2ccccc12

>  <Target Of Assay>
Aerobactin synthetase IucA (Klebsiella pneumoniae hvKP1)

>  <Attribute Measured>
activity remaining

>  <Quantitative Result>
88.4

$$$$

Provide the reported activity remaining of each entry below, same order.
1. OC1CCCCC1N1CCC(c2ccccc2)CC1 (centres undefined)
2. CCOc1ccc(Cc2nccc3cc(OCC)c(OCC)cc23)cc1OCC
3. O=C(O)c1nc2cc(Cl)c(Cl)cc2[nH]c1=O
4. NN=C(N)N
5. CC1OC(=O)[C@@H](C(C)C)NC(=O)C(C(C)C)OC(=O)[C@H](C(C)C)NC(=O)C(C)OC(=O)[C@@H](C(C)C)NC(=O)C(C(C)C)OC(=O)[C@H](C(C)C)NC(=O)C(C)OC(=O)[C@@H](C(C)C)NC(=O)C(C(C)C)OC(=O)[C@H](C(C)C)NC1=O (some centres undefined)

87.4
109
92.7
107
122

Could I get activity remaining for every one of these entries?
1. C[N+](C)(C)CC(=O)[O-]
2. CCCCCC(=O)O[C@]1(C(C)=O)CCC2C3CCC4=CC(=O)CC[C@]4(C)C3CC[C@@]21C (some centres undefined)

1. 124
2. 109

* * *

Kindly state viability for each of the entries shown.
Test: liver-stage malaria parasite growth inhibition, primary screen, cell-based, HepG2, luciferase luminescence, HepG2 viability (AID 624349);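 also: 100% = mean of DMSO negative control wells on the same plate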
Conditions: P. berghei liver stage in HepG2, luciferase luminescence, concentration not given here; measured here: HepG2 viability without parasites
One number for each entry, in %.

>  <Compound>
CC(C)NCC(O)c1ccc(N)c(C#N)c1 (centres undefined)

>  <Quantitative Result>
161

$$$$
>  <Compound>
CCC1C(=O)OCC1Cc1cncn1C (centres undefined)

>  <Quantitative Result>
114

$$$$
>  <Compound>
COc1cc(N)c(Cl)cc1C(=O)NC1CN2CCC1CC2 (centres undefined)

>  <Quantitative Result>
107

$$$$
>  <Compound>
CC1CC[C@]2(NC1)O[C@H]1C[C@H]3[C@@H]4CC[C@H]5C[C@@H](O)CC[C@]5(C)[C@H]4CC[C@]3(C)[C@H]1[C@@H]2C (some centres undefined)

>  <Quantitative Result>
73.9

$$$$
>  <Compound>
C[C@]12CCC(=O)C=C1CC[C@@H]1[C@@H]2C(=O)C[C@]2(C)C(=O)CC[C@@H]12

>  <Quantitative Result>
96.5

$$$$

Dear colleague, could you please provide viability for the compounds listed below?
1. CN1CC[C@@H](c2ccc(F)cc2)[C@H](COc2ccc3c(c2)OCO3)C1
2. CC[C@]1(O)CC[C@H]2[C@@H]3CCC4=CCCC[C@@H]4[C@H]3CC[C@@]21C
3. C[C@@H]1CC[C@H]2[C@@H](C)C(=O)O[C@@H]3OC4(C)CC[C@@H]1[C@]32OO4
4. O=C1NCN(c2ccccc2)C12CCN(CC1COc3ccccc3O1)CC2 (centres undefined)
5. CCOC(=O)C1(c2ccccc2)CCN(CCC(C#N)(c2ccccc2)c2ccccc2)CC1

65.3
75.2
72.2
103
62

Fill in viability for each of the 4 compounds listed.
1. CCN1C[C@]2(C)CC[C@H](OC)[C@@]34C1[C@]1(OCO[C@@]15C[C@H](OC)[C@H]1C[C@]3(O)[C@@H]5[C@H]1OC)[C@@H](OC(C)=O)[C@H]24
2. CN1CC[C@@]23CCCC[C@@H]2[C@@H]1Cc1ccc(O)cc13
3. O=C1NC(=O)c2c1c1c3ccccc3[nH]c1c1[nH]c3ccccc3c21
4. CC(=O)O[C@H]1CC[C@@]2(C)C(=CC[C@@H]3[C@@H]2CC[C@]2(C)C(=O)CC[C@@H]32)C1

1: 96.9; 2: 68.2; 3: 159; 4: 93.1

# map each compound to its viability
1. C[C@@H]1CN(C2CCC(C#N)(c3ccc(F)cc3)CC2)CC[C@]1(C(=O)O)c1ccccc1 (some centres undefined)
2. O=[N+]([O-])/C=C/c1ccc2c(c1)OCO2
3. c1ccc(C2CC2)c(OCC2=NCCN2)c1
4. CN(C(Cc1ccc(OOSOc2cccc3cnccc23)cc1)C(=O)N1CCN(c2ccccc2)CC1)S(=O)(=O)c1cccc2cnccc12 (centres undefined)
5. COc1ccc(C(=O)OC2C[C@H]3CC[C@@H](C2)N3C)cc1OC (some centres undefined)

76.2
65.7
96.5
153
77.3

* * *

Assay: sensitizers of A549 cells to miR-34 induction, primary screen, imaging, A549 dox-inducible miR-34, nuclei and caspase counts (AID 1347080)
Conditions: A549 miR-34 inducible, Hoechst nuclei count, 48 h; measured here: total cells with miR-34 induction; stronger effect = lower value
Attribute Measured: cell count
One number for each entry.

Go through the list and state cell count for each entry.
1. C[C@@]1(CO)[C@H](O)CC[C@@]2(C)[C@H]1CC[C@H]1C[C@@H]3C[C@@]12CC[C@]3(O)CO
2. CC(C)(O)C1C2OC(=O)C1[C@]1(O)CC3O[C@]34C(=O)OC2[C@]14C (some centres undefined) (tested in a mixture with another compound)
3. O=C(O)Cc1cccnc1C(=O)O
4. COc1ccc(CN2CCNCC2)c(OC)c1OC
5. COc1ccc2[nH]c3c(c2c1)CCNC3

1: 2420; 2: 9380; 3: 8790; 4: 9020; 5: 10400

// each listed compound needs a value for cell count
1. O=c1ccc2cc(OC3OC(CO)C(O)C(O)C3O)c(O)cc2o1 (centres undefined)
2. CN=C(NS(=O)(=O)c1ccc(Cl)cc1)N1CC(c2ccccc2)C(c2ccc(Cl)cc2)=N1 (centres undefined)
3. C[C@@H]1CC[C@@]2(NC1)O[C@H]1C[C@H]3[C@@H]4CC=C5C[C@@H](O)CC[C@]5(C)[C@H]4CC[C@]3(C)[C@H]1[C@@H]2C
4. CCCCCOc1c(OC)ccc2cc(C(=O)NCc3ccc4c(c3)OCO4)c(=O)[nH]c12

1. 9070
2. 4700
3. 9310
4. 5450

These entries and their values trace back to PubChem BioAssay.
